# study-system: T1, Anti-CD28 Fab (SEQ ID NOs: 202, 203)
# T1 construct: biotinylated and captured on neutravidin coated plates in the phage ELISA
# T1 sequence (VH, as listed by the source, chain 1 of 2): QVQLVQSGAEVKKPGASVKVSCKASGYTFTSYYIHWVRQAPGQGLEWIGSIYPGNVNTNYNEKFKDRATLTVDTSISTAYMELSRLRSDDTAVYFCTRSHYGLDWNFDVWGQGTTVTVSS
# T1 sequence (VL, as listed by the source, chain 2 of 2): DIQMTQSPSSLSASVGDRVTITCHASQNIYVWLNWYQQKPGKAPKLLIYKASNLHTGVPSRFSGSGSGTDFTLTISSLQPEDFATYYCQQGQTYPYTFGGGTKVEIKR
# assay-overview: phage ELISA, Fab on plate, CD28 antigen as competitor
property: Anti-CD28 Fab signal in the presence of CD28

Record YCDGHAEEYRMKCL [Phage-678] . Reported Anti-CD28 Fab signal in the presence of CD28: 0.08

More entries:
Anti-CD28 Fab signal in the presence of CD28 reading for YCEGHDVQYMQKCL [Phage-749] : 0.08

Looking up YCDGHLDEYMLKCL [Phage-603] , I see its Anti-CD28 Fab signal in the presence of CD28 listed as 0.06

The measured Anti-CD28 Fab signal in the presence of CD28 associated with YCEGHRAEYMSKCL [Phage-716] reads 0.09
